Where do the numbers come from? From patent US5972898A.

- systemUnderTest: LHRH rat pituitary receptor (Rattus norvegicus, UniProt P30969)
- Construct: from tissue; host or cells: rat pituitary
- assayProtocol: LHRH rat pituitary receptor binding (pKI)
- conditionLabel: in vitro, read-out: pKI (receptor binding affinity) (converted)
This listing pairs compounds with measured Ki.
quantityKind: Ki (nM)

1. CC[C@H]1OC(=O)[C@H](C)[C@@H](O[C@H]2C[C@@](C)(OC)[C@@H](O)[C@H](C)O2)[C@H](C)[C@@H](O[C@@H]2O[C@H](C)C[C@H](N(CCCc3ccncc3)CC3CC3)[C@H]2O)[C@](C)(OC)C[C@@H](C)C(=O)[C@H](C)[C@H]2N(CCc3ccc(Cl)c(Cl)c3)C(=O)O[C@]12C; 1.91
2. CC[C@H]1OC(=O)[C@H](C)[C@@H](O[C@H]2C[C@@](C)(OC)[C@@H](O)[C@H](C)O2)[C@H](C)[C@@H](O[C@@H]2O[C@H](C)C[C@H](N(CC)C(C)C)[C@H]2O)[C@](C)(OC)C[C@@H](C)C(=O)[C@H](C)[C@H]2N(CCc3ccc(Cl)cc3)C(=O)O[C@]12C; 2.51
3. CC[C@H]1OC(=O)[C@H](C)[C@@H](O[C@H]2C[C@@](C)(OC)[C@@H](O)[C@H](C)O2)[C@H](C)[C@@H](O[C@@H]2O[C@H](C)C[C@H](N(C3CCC3)C3CCC3)[C@H]2O)[C@](C)(OC)C[C@@H](C)C(=O)[C@H](C)[C@H]2N(CCc3ccc(Cl)c(F)c3)C(=O)O[C@]12C; 1
4. CC[C@H]1OC(=O)[C@H](C)[C@@H](O[C@H]2C[C@@](C)(OC)[C@@H](O)[C@H](C)O2)[C@H](C)[C@@H](O[C@@H]2O[C@H](C)C[C@H](N(CC3CC3)CC3CC3)[C@H]2O)[C@](C)(OC)C[C@@H](C)C(=O)[C@H](C)[C@H]2N(CCc3ccc(F)c(F)c3)C(=O)O[C@]12C; 3.16

====

This listing pairs compounds with measured log10(Kb).
- systemUnderTest: rat pituitary cells (Rattus norvegicus, UniProt P30969)
- Construct: endogenous in cells; host or cells: rat pituitary cells
- Sequence (P30969 whole entry): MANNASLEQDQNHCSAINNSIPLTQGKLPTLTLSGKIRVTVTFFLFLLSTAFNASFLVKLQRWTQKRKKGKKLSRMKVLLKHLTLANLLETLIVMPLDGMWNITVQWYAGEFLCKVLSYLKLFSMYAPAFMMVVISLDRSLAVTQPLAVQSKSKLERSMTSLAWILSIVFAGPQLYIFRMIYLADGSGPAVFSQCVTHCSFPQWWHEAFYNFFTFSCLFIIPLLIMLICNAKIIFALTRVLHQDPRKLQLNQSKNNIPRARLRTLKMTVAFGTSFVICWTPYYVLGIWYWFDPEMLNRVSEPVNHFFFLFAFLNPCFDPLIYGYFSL
- assayProtocol: LH inhibition from rat pituitary cells for antagonist potency (pA2)
- Assay type: cell-based
- conditionLabel: negative log of antagonist concentration shifting the leuprolide response curve to two-fold higher concentration
quantityKind: log10(Kb) (log10 of the value in nM)

1) CC[C@H]1OC(=O)[C@H](C)[C@@H](O[C@H]2C[C@@](C)(OC)[C@@H](O)[C@H](C)O2)[C@H](C)[C@@H](O[C@@H]2O[C@H](C)C[C@H](N(C3CCC3)C3CCC3)[C@H]2O)[C@](C)(OC)C[C@@H](C)C(=O)[C@H](C)[C@H]2N(CCc3ccc(Cl)cc3)C(=O)O[C@]12C; -0.90
2) CC[C@H]1OC(=O)[C@H](C)[C@@H](O[C@H]2C[C@@](C)(OC)[C@@H](O)[C@H](C)O2)[C@H](C)[C@@H](O[C@@H]2O[C@H](C)C[C@H](N(CC3CC3)CC3CC3)[C@H]2O)[C@](C)(OC)C[C@@H](C)C(=O)[C@H](C)[C@H]2N(CCc3ccc(Cl)c(F)c3)C(=O)O[C@]12C; -0.53
3) CC[C@H]1OC(=O)[C@H](C)[C@@H](O[C@H]2C[C@@](C)(OC)[C@@H](O)[C@H](C)O2)[C@H](C)[C@@H](O[C@@H]2O[C@H](C)C[C@H](N(C3CCC3)C3CCC3)[C@H]2O)[C@](C)(OC)C[C@@H](C)C(=O)[C@H](C)[C@H]2N(CCc3ccc(Cl)c(Cl)c3)C(=O)O[C@]12C; 0.73
4) CC[C@H]1OC(=O)[C@H](C)[C@@H](O[C@H]2C[C@@](C)(OC)[C@@H](O)[C@H](C)O2)[C@H](C)[C@@H](O[C@@H]2O[C@H](C)C[C@H](N(CC3CC3)CC3CC3)[C@H]2O)[C@](C)(OC)C[C@@H](C)C(=O)[C@H](C)[C@H]2N(CCc3ccc(F)c(F)c3)C(=O)O[C@]12C; 0.19
5) CC[C@H]1OC(=O)[C@H](C)[C@@H](O[C@H]2C[C@@](C)(OC)[C@@H](O)[C@H](C)O2)[C@H](C)[C@@H](O[C@@H]2O[C@H](C)C[C@H](N(C3CCC3)C3CCC3)[C@H]2O)[C@](C)(OC)C[C@@H](C)C(=O)[C@H](C)[C@H]2N(CCc3ccc(F)c(Cl)c3)C(=O)O[C@]12C; -0.12
6) CC[C@H]1OC(=O)[C@H](C)[C@@H](O[C@H]2C[C@@](C)(OC)[C@@H](O)[C@H](C)O2)[C@H](C)[C@@H](O[C@@H]2O[C@H](C)C[C@H](N(C(C)C)C3CCC3)[C@H]2O)[C@](C)(OC)C[C@@H](C)C(=O)[C@H](C)[C@H]2N(CCc3ccc(Cl)cc3)C(=O)O[C@]12C; -0.08

====

- systemUnderTest: LHRH rat pituitary receptor (Rattus norvegicus, UniProt P30969)
- Construct: from tissue; host or cells: rat pituitary
- assayProtocol: LHRH rat pituitary receptor binding (pKI)
- conditionLabel: in vitro, read-out: pKI (receptor binding affinity) (converted)
quantityKind: Ki (nM)

1. CC[C@H]1OC(=O)[C@H](C)[C@@H](O[C@H]2C[C@@](C)(OC)[C@@H](O)[C@H](C)O2)[C@H](C)[C@@H](O[C@@H]2O[C@H](C)C[C@H](N(CC3CC3)CC3CC3)[C@H]2O)[C@](C)(OC)C[C@@H](C)C(=O)[C@H](C)[C@H]2N(CCc3ccc(F)cc3)C(=O)O[C@]12C [Example 11]; 2.19
2. CC[C@H]1OC(=O)[C@H](C)[C@@H](O[C@H]2C[C@@](C)(OC)[C@@H](O)[C@H](C)O2)[C@H](C)[C@@H](O[C@@H]2O[C@H](C)C[C@H](N(C3CCC3)C3CCC3)[C@H]2O)[C@](C)(OC)C[C@@H](C)C(=O)[C@H](C)[C@H]2N(CCc3ccc(F)c(Cl)c3)C(=O)O[C@]12C [Example 14]; 0.251
3. CC[C@H]1OC(=O)[C@H](C)[C@@H](O[C@H]2C[C@@](C)(OC)[C@@H](O)[C@H](C)O2)[C@H](C)[C@@H](O[C@@H]2O[C@H](C)C[C@H](N(C3CCC3)C3CCC3)[C@H]2O)[C@](C)(OC)C[C@@H](C)C(=O)[C@H](C)[C@H]2N(CCc3ccc(Cl)cc3)C(=O)O[C@]12C [Example 4]; 2.4
4. CC[C@H]1OC(=O)[C@H](C)[C@@H](O[C@H]2C[C@@](C)(OC)[C@@H](O)[C@H](C)O2)[C@H](C)[C@@H](O[C@@H]2O[C@H](C)C[C@H](N(CC3CC3)CC3CC3)[C@H]2O)[C@](C)(OC)C[C@@H](C)C(=O)[C@H](C)[C@H]2N(CCc3ccc(Cl)cc3)C(=O)O[C@]12C [Example 3]; 4.17
5. CC[C@H]1OC(=O)[C@H](C)[C@@H](O[C@H]2C[C@@](C)(OC)[C@@H](O)[C@H](C)O2)[C@H](C)[C@@H](O[C@@H]2O[C@H](C)C[C@H](N(CC3CC3)CC3CC3)[C@H]2O)[C@](C)(OC)C[C@@H](C)C(=O)[C@H](C)[C@H]2N(CCc3ccc(Cl)c(Cl)c3)C(=O)O[C@]12C [Example 1]; 18.6
6. CC[C@H]1OC(=O)[C@H](C)[C@@H](O[C@H]2C[C@@](C)(OC)[C@@H](O)[C@H](C)O2)[C@H](C)[C@@H](O[C@@H]2O[C@H](C)C[C@H](N(C3CCC3)C3CCC3)[C@H]2O)[C@](C)(OC)C[C@@H](C)C(=O)[C@H](C)[C@H]2N(CCc3ccc(Cl)c(Cl)c3)C(=O)O[C@]12C [Example 2]; 3.16
7. CC[C@H]1OC(=O)[C@H](C)[C@@H](O[C@H]2C[C@@](C)(OC)[C@@H](O)[C@H](C)O2)[C@H](C)[C@@H](O[C@@H]2O[C@H](C)C[C@H](N(C(C)C)C3CCC3)[C@H]2O)[C@](C)(OC)C[C@@H](C)C(=O)[C@H](C)[C@H]2N(CCc3ccc(Cl)cc3)C(=O)O[C@]12C [Example 5]; 0.832
8. CC[C@H]1OC(=O)[C@H](C)[C@@H](O[C@H]2C[C@@](C)(OC)[C@@H](O)[C@H](C)O2)[C@H](C)[C@@H](O[C@@H]2O[C@H](C)C[C@H](N(CC3CC3)CC3CC3)[C@H]2O)[C@](C)(OC)C[C@@H](C)C(=O)[C@H](C)[C@H]2N(CCc3ccc(F)c(Cl)c3)C(=O)O[C@]12C [Example 15]; 1.26
9. CC[C@H]1OC(=O)[C@H](C)[C@@H](O[C@H]2C[C@@](C)(OC)[C@@H](O)[C@H](C)O2)[C@H](C)[C@@H](O[C@@H]2O[C@H](C)C[C@H](N(CC3CC3)CC3CC3)[C@H]2O)[C@](C)(OC)C[C@@H](C)C(=O)[C@H](C)[C@H]2N(CCc3ccc(OC)cc3)C(=O)O[C@]12C [Example 10]; 1.41
10. CC[C@H]1OC(=O)[C@H](C)[C@@H](O[C@H]2C[C@@](C)(OC)[C@@H](O)[C@H](C)O2)[C@H](C)[C@@H](O[C@@H]2O[C@H](C)C[C@H](N(CC3CCC3)CC3CC3)[C@H]2O)[C@](C)(OC)C[C@@H](C)C(=O)[C@H](C)[C@H]2N(CCc3ccc(Cl)cc3)C(=O)O[C@]12C [Example 9]; 6.31
11. CCCN(C(C)C)[C@H]1C[C@@H](C)O[C@@H](O[C@@H]2[C@@H](C)[C@H](O[C@H]3C[C@@](C)(OC)[C@@H](O)[C@H](C)O3)[C@@H](C)C(=O)O[C@H](CC)[C@@]3(C)OC(=O)N(CCc4ccc(Cl)cc4)[C@@H]3[C@@H](C)C(=O)[C@H](C)C[C@@]2(C)OC)[C@@H]1O [Example 6]; 8.32
12. CC[C@H]1OC(=O)[C@H](C)[C@@H](O[C@H]2C[C@@](C)(OC)[C@@H](O)[C@H](C)O2)[C@H](C)[C@@H](O[C@@H]2O[C@H](C)C[C@H](N(CC3CC3)CC3CC3)[C@H]2O)[C@](C)(OC)C[C@@H](C)C(=O)[C@H](C)[C@H]2N(CCc3ccc(Cl)c(F)c3)C(=O)O[C@]12C [Example 13]; 1.15
13. CC[C@H]1OC(=O)[C@H](C)[C@@H](O[C@H]2C[C@@](C)(OC)[C@@H](O)[C@H](C)O2)[C@H](C)[C@@H](O[C@@H]2O[C@H](C)C[C@H](N(CCCc3ccccn3)CCCc3ccccn3)[C@H]2O)[C@](C)(OC)C[C@@H](C)C(=O)[C@H](C)[C@H]2N(CCc3ccc(Cl)c(Cl)c3)C(=O)O[C@]12C [Example 20]; 3.98
